Each record here notes measured MIC MR S.a..
# System: methicillin resistant Staphylococcus aureus (CI 15903)
# Test Method Notes: microbe, parasite or virus in culture
# Measurement Context: methicillin resistant (CI 15903)
Square brackets hold non-standard residues; d marks the D form. Peptide text beside a SMILES is read from it. 12Ado = NCCCCCCCCCCCC(=O)O
Value expressed in µM; do not type the unit.

Field: example entries. Status: answers known.
Compound | Subject Of Test | Property | Test Value
NCCCC[C@@H]1NC(=O)CCCCCCCCCCCNC(=O)[C@H](CCCCN)NC(=O)[C@H](CCCCN)NC(=O)CCCCCCCCCCCNC(=O)[C@H](CCCCN)NC(=O)[C@H](CCCCN)NC(=O)CCCCCCCCCCCNC(=O)[C@H](CCCCN)NC1=O [Polymer 8, Cyclic-(KNC12K)3] (cyclo(K[12Ado]KK[12Ado]KK[12Ado]K)) | methicillin resistant Staphylococcus aureus (CI 15903) | MIC MR S.a. | 25
NCCCC[C@@H]1NC(=O)CCCCCCCCCCCNC(=O)[C@H](CCCCN)NC(=O)CCCCCCCCCCCNC(=O)[C@H](CCCCN)NC(=O)CCCCCCCCCCCNC(=O)[C@H](CCCCN)NC(=O)[C@H](CCCCN)NC(=O)CCCCCCCCCCCNC(=O)[C@H](CCCCN)NC(=O)CCCCCCCCCCCNC1=O [Polymer 2, Cyclic-K(NC12K)5] (cyclo(K[12Ado]K[12Ado]K[12Ado]K[12Ado]K[12Ado]K)) | methicillin resistant Staphylococcus aureus (CI 15903) | MIC MR S.a. | 6.25
NCCCCC1NC(=O)CCCCCCCCCCCNC(=O)C(CCCCN)NC(=O)CCCCCCCCCCCNC(=O)C(CCCCN)NC(=O)CCCCCCCCCCCNC1=O (centres unmarked) [Polymer 4, Cyclic-(NC12K)3] | methicillin resistant Staphylococcus aureus (CI 15903) | MIC MR S.a. | 12.5
NCCCC[C@@H]1NC(=O)CCCCCCCCCCCNC(=O)[C@H](CCCCN)NC(=O)[C@H](CCCCN)NC(=O)CCCCCCCCCCCNC(=O)[C@H](CCCCN)NC(=O)[C@H](CCCCN)NC(=O)CCCCCCCCCCCNC1=O [Polymer 10, Cyclic-NC12K(KNC12K)2] (cyclo([12Ado]KK[12Ado]KK[12Ado]K)) | methicillin resistant Staphylococcus aureus (CI 15903) | MIC MR S.a. | 12.5

IN: Lab note: need MIC MR S.a. for CCCCCCCCCCCC(=O)NCCCCC(N)C(=O)NCCCCCCCCCCCC(=O)NCCCCC(N)C(N)=O (centres unmarked) [Polymer 13, C12K(ε)NC12K(ε)NH2] on methicillin resistant Staphylococcus aureus (CI 15903), anyone have it?
OUT: 12.5

====

# System: Pseudomonas aeruginosa (ATCC 9027)
# Test Method Notes: microbe, parasite or virus in culture
# Measurement Context: ATCC 9027
Square brackets hold non-standard residues; d marks the D form. Peptide text beside a SMILES is read from it. 12Ado = NCCCCCCCCCCCC(=O)O
Property: MIC P.a. (µM)
Value expressed in µM; do not type the unit.

Field: example entries. Status: answers known.
Compound | MIC P.a., µM
NCCCC[C@@H]1NC(=O)CCCCCCCCCCCNC(=O)[C@H](CCCCN)NC(=O)[C@H](CCCCN)NC(=O)[C@H](CCCCN)NC(=O)CCCCCCCCCCCNC(=O)[C@H](CCCCN)NC1=O [Polymer 11, Cyclic-KNC12KKKNC12K] (cyclo(K[12Ado]KKK[12Ado]K)) | 12.5
NCCCC[C@@H]1NC(=O)CCCCCCCCCCCNC(=O)[C@H](CCCCN)NC(=O)[C@H](CCCCN)NC(=O)CCCCCCCCCCCNC(=O)[C@H](CCCCN)NC(=O)[C@H](CCCCN)NC(=O)CCCCCCCCCCCNC(=O)[C@H](CCCCN)NC1=O [Polymer 8, Cyclic-(KNC12K)3] (cyclo(K[12Ado]KK[12Ado]KK[12Ado]K)) | 12.5
NCCCCC1NC(=O)CCCCCCCCCCCNC(=O)C(CCCCN)NC(=O)C(CCCCN)NC(=O)CCCCCCCCCCCNC1=O (centres unmarked) [Polymer 9, Cyclic-NC12KKNC12K] (cyclo([12Ado]K[12Ado]KK); configuration not given here) | 50
NCCCCC1NC(=O)CCCCCCCCCCCNC(=O)C(CCCCN)NC(=O)CCCCCCCCCCCNC(=O)C(CCCCN)NC(=O)CCCCCCCCCCCNC(=O)C(CCCCN)NC(=O)CCCCCCCCCCCNC(=O)C(CCCCN)NC(=O)CCCCCCCCCCCNC1=O (centres unmarked) [Polymer 6, Cyclic-(NC12K)5] | 50

# evaluate next
IN: Lab note: need MIC P.a. for NCCCC[C@@H]1NC(=O)CCCCCCCCCCCNC(=O)[C@H](CCCCN)NC(=O)CCCCCCCCCCCNC(=O)[C@H](CCCCN)NC(=O)CCCCCCCCCCCNC(=O)[C@H](CCCCN)NC(=O)[C@H](CCCCN)NC(=O)CCCCCCCCCCCNC(=O)[C@H](CCCCN)NC(=O)CCCCCCCCCCCNC1=O [Polymer 2, Cyclic-K(NC12K)5] (cyclo(K[12Ado]K[12Ado]K[12Ado]K[12Ado]K[12Ado]K)) on Pseudomonas aeruginosa (ATCC 9027), anyone have it?
OUT: 12.5

====

# Test system: methicillin resistant Staphylococcus aureus (CI 15903)
# Test Method Notes: microbe, parasite or virus in culture
# Measurement Context: methicillin resistant (CI 15903)
Square brackets hold non-standard residues; d marks the D form. Peptide text beside a SMILES is read from it. 12Ado = NCCCCCCCCCCCC(=O)O
Property: MIC MR S.a.

Compound | MIC MR S.a.
NCCCCC1NC(=O)CCCCCCCCCCCNC(=O)C(CCCCN)NC(=O)CCCCCCCCCCCNC(=O)C(CCCCN)NC(=O)CCCCCCCCCCCNC(=O)C(CCCCN)NC(=O)CCCCCCCCCCCNC1=O (stereo not drawn) [Polymer 5, Cyclic-(NC12K)4] | >50 µM
NCCCC[C@@H]1NC(=O)CCCCCCCCCCCNC(=O)[C@H](CCCCN)NC(=O)[C@H](CCCCN)NC(=O)[C@H](CCCCN)NC(=O)CCCCCCCCCCCNC(=O)[C@H](CCCCN)NC(=O)[C@H](CCCCN)NC1=O [Polymer 12, Cyclic-KNC12KKKNC12KK] (cyclo(K[12Ado]KKK[12Ado]KK)) | >50 µM

IN: Look at this compound and give its reported MIC MR S.a.. NCCCC[C@@H]1NC(=O)CCCCCCCCCCCNC(=O)[C@H](CCCCN)NC(=O)[C@H](CCCCN)NC(=O)[C@H](CCCCN)NC(=O)CCCCCCCCCCCNC(=O)[C@H](CCCCN)NC1=O [Polymer 11, Cyclic-KNC12KKKNC12K] (cyclo(K[12Ado]KKK[12Ado]K))
OUT: >50 µM

====

# System: Pseudomonas aeruginosa (ATCC 9027)
# Test Method Notes: microbe, parasite or virus in culture
# Measurement Context: ATCC 9027
Square brackets hold non-standard residues; d marks the D form. Peptide text beside a SMILES is read from it. 12Ado = NCCCCCCCCCCCC(=O)O
Property: MIC P.a.

Field: example entries. Status: answers known.
Compound | Subject Of Test | Property | Test Value
NCCCC[C@@H]1NC(=O)CCCCCCCCCCCNC(=O)[C@H](CCCCN)NC(=O)[C@H](CCCCN)NC(=O)[C@H](CCCCN)NC(=O)CCCCCCCCCCCNC(=O)[C@H](CCCCN)NC(=O)[C@H](CCCCN)NC1=O [Polymer 12, Cyclic-KNC12KKKNC12KK] (cyclo(K[12Ado]KKK[12Ado]KK)) | Pseudomonas aeruginosa (ATCC 9027) | MIC P.a. | >50 µM
NCCCCC1NC(=O)CCCCCCCCCCCNC(=O)C(CCCCN)NC(=O)CCCCCCCCCCCNC(=O)C(CCCCN)NC(=O)CCCCCCCCCCCNC(=O)C(CCCCN)NC(=O)CCCCCCCCCCCNC1=O (stereo not drawn) [Polymer 5, Cyclic-(NC12K)4] | Pseudomonas aeruginosa (ATCC 9027) | MIC P.a. | >50 µM

# evaluate next
IN: Lab note: need MIC P.a. for NCCCCC1NC(=O)CCCCCCCCCCCNC(=O)C(CCCCN)NC(=O)CCCCCCCCCCCNC(=O)C(CCCCN)NC(=O)CCCCCCCCCCCNC1=O (stereo not drawn) [Polymer 4, Cyclic-(NC12K)3] on Pseudomonas aeruginosa (ATCC 9027), anyone have it?
OUT: >50 µM
